# kon values compiled below
subjectOfTest: 3-pTza peptide (Biotin-AminocaproicAcid-AGAG-3-pTza-AGAG)
measurementNotes: BLI
Your answer is read as M⁻¹ s⁻¹, so omit the unit and give the number.

| binder | testResult |
| --- | --- |
| hSC44.22 IgG (antibody, V domains shown) VH: EVQLVESGGGLVQPGGSLRLSCTASGFSIDSYGFSWVRQAPGKGLEHIGYLTAGGRAFYASWAKSRSTITRNTNENTVTLKMNSLRAEDTAVYYCAKLGTGTPVAIWG VL: DIQMTQSPSSLSASVGDRVTITCRASQSVWRNKNVAWYQQKPGKAPKRLIYAIASLYSGVPSRFSGSGSGTDFTLTISSLQPEDFATYYCVGHYGSENDAYYAFGQGTKVEIK | 90600 |

Return reported kon; argument: hSC44.1 IgG (antibody, V domains shown) VH: EVQLVESGGGLVQPGGSLRLSCTASGFSIDSYGFSWVRQAPGKGLEHIGYLTAGGRAFYASWAKSRSTITRNTNENTVTLKMNSLRAEDTAVYYCAKLGTGSPIAIWGQGTLVTVSS VL: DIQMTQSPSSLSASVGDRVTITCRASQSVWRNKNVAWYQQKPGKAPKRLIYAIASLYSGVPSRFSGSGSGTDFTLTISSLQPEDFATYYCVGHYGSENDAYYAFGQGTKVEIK
141000
